Values of logP greater than or equal to 2 map to YES; values below map to NO.

# compound, label value
records = [
    ("COc1cccc2c1C(=O)c1c(O)c3c(c(O)c1C2=O)CC(O)(C(C)=O)CC3OC1CC(N2CCOCC2)C(O)C(C)O1 (stereo not drawn)", "YES"),
    ("O=C(Cn1ccnc1[N+](=O)[O-])NCC(O)CO (stereo not drawn)", "NO"),
    ("CC1(C)CC(N)CC(C)(C)N1O", "NO"),
    ("O=C(O)Cc1cccc2ccccc12", "YES"),
    ("c1ccc(C2CCNCC2)cc1", "YES"),
]

Could you verify whether the entry "COc1cccc(/C=C/C(=O)O)c1" shows logP of no less than 2? YES

Is the recorded value of logP equal to or greater than 2 for this compound? "CCCCCc1cc(O)c2c(c1)OC(C)(C)[C@@H]1CCC(CO)=C[C@@H]21" YES

Form field: logP at least 2? Entry: "Clc1cccc(Br)c1N=C1NCCN1" NO

Is logP at least 2? Consider "CCCCCc1ccc(CC(=O)O)cc1" YES

Item "CC(C)(C)c1cc(C2C(=O)c3ccccc3C2=O)cc(C(C)(C)C)c1" with logP of 2 or above? YES
